assay: qHTS for Inhibitors of Plasmodium falciparum (7G8) proliferation (AID 504316); also: nearly all actives have a fitted effect of over 65% in size; settings: P. falciparum 7G8 in erythrocytes, SYBR Green DNA, 72 h; series mostly up to 6.7 µM
Inconclusive results are not listed. Active and inactive are the calls of the source. Calls follow the shape of the dose curve; as a rule, active = well fitted inhibition curve with a large enough effect; inconclusive = small, poorly fitted or top-dose-only effect; inactive = flat fitted curve, though single readings scatter.
Hi! Could you answer with just one of these? active, inactive

Example entries begin here.
{"compound": "CC(=O)Nc1ccc(S(=O)(=O)N2CCc3nc(-c4ccccc4)c4c(c3C2)CO[C@@H](C)C4)cc1", "category_label": "inactive"}
{"compound": "C[C@@H]1C=CCCO[C@]12C(=O)N(Cc1ccc(Br)cc1)c1cccc(Br)c12", "category_label": "inactive"}
{"compound": "C=C(C)CO[C@H]1C=C[C@@H](c2ccccc2)O[C@H]1CO", "category_label": "inactive"}

Q) Which outcome was assigned to O=C1NC[C@H](c2ccccc2)N1 in this test?
A) inactive

Q) Which outcome was assigned to CCOC(=O)CCN1C(=O)[C@@H]2[C@H]3[C@H](O)[C@H](O)CC(=NNC(=O)OCc4ccc(OC)cc4)[C@@H]3CC[C@H]2C1=O in this test?
A) inactive

Q) Which outcome was assigned to COc1ccc(O[C@H]2C=C[C@@H](c3ccccc3)O[C@H]2CON=C(C)CCN2CCCc3nc(C)c(C)cc32)cc1 in this test?
A) active

Q) Which outcome was assigned to COC(=O)CCCC1=CC2=CC(=O)C(C)(OC(=O)c3cccs3)C(=O)C2=CN1CC(C)C (stereo not drawn) in this test?
A) inactive

###

experiment: qHTS for Inflammasome Signaling Inhibitors: IL-1-beta AlphaLISA screen against the NCATS CANVASS Library (AID 1347379); settings: THP-1 LPS/ATP, IL-1B AlphaLISA secretion, 16 h; series mostly up to 57.5 µM;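 also: human THP-1 cells primed with LPS then triggered with ATP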
Records with an inconclusive call do not appear. Activity calls are given as the source filed them. Calls come from the whole dose curve; as a rule, active = well fitted inhibition curve with a large enough effect; inconclusive = small, poorly fitted or top-dose-only effect; inactive = flat fitted curve, though single readings scatter.
Hi! Could you answer with just one of these? T = active, F = inactive

{"molecule": "C=C1C[C@@]23C=CC(=O)[C@@](C)(CCC(=O)Nc4c(O)ccc(C(=O)O)c4O)C2C[C@@H]1CC3 (some centres not stated)", "category_label": "F"}
{"molecule": "C/C=C1/CC[C@@H]2c3[nH]c4ccccc4c3CCN2C1", "category_label": "F"}
{"molecule": "CC1(C)C=Cc2c(ccc3c2OC[C@@H](c2ccc(O)cc2O)C3)O1", "category_label": "F"}

Q) Which outcome was assigned to CCCCCCC[C@@H](C/C=C/CCC(=O)NCCc1c[nH]c2ccccc12)OC in this test?
A) F

Q) Which outcome was assigned to C[C@@H]1O[C@@H](O[C@@H]2[C@@H](O)[C@H](O[C@@H]3[C@@H](O)[C@@H](O)C(O[C@H]4[C@H](OC(=O)[C@]56CCC(C)(C)C[C@H]5C5=CCC7[C@@]8(C)C[C@H](O)[C@H](O[C@@H]9C[C@H](CO)[C@@H](O)[C@H](O)[C@H]9O)[C@@](C)(CO)C8[C@H](O)C[C@@]7(C)[C@]5(C)CC6)OC[C@H](O)[C@@H]4O)O[C@H]3C)OC[C@H]2O)[C@H](O)[C@H](O)[C@H]1O (some centres not stated) in this test?
A) F

Q) Which outcome was assigned to COc1ccc([C@@H]2c3cc(OC)c(OC)cc3C(=O)C(C)C2C)cc1OC (some centres not stated) in this test?
A) F

Q) Which outcome was assigned to C=C1C[C@@]23C=CC(=O)[C@@](C)(CCC(=O)Nc4c(O)ccc(C(=O)O)c4O)C2C[C@@H]1CC3O (some centres not stated) in this test?
A) F

Q) Which outcome was assigned to CO[C@@H]1[C@H](O)[C@@H](C)O[C@@H](OC[C@H]2/C=C/C=C/C(=O)C(C)C[C@H](C)C(O[C@@H]3O[C@H](C)CC4(OC(=O)O[C@@H]4C)C3O)[C@@H](C)/C=C/C(=O)OC2C)[C@@H]1OC (some centres not stated) in this test?
A) F

Q) Which outcome was assigned to CC1(C)CC[C@]2(C(=O)O)CC[C@]3(C)C(=CC[C@@H]4[C@@]5(C)C[C@@H](O)[C@H](O)C(C)(C)[C@@H]5CC[C@]43C)[C@@H]2C1 in this test?
A) F

Q) Which outcome was assigned to C/C1=C/[C@@H](C)[C@H](O)C/C=C/CC/C=C/C(=O)O[C@@H]1[C@H](C)C(=O)/C=C/CC1CC(=O)NC(=O)C1 in this test?
A) T

Q) Which outcome was assigned to C=C(C)[C@@H]1CC[C@]2(C)CC[C@]3(C)[C@H](CC[C@@H]4[C@@]5(C)CC[C@H](O)C(C)(C)[C@@H]5CC[C@]43C)[C@@H]12 in this test?
A) F

Q) Which outcome was assigned to CC[C@@H]1C[C@@]2(CC)OC(=O)[C@@]3(CC)OC(=O)[C@@H]1[C@@H]23 in this test?
A) F
